Each entry below lists one item and its recorded Ki value.
- study.system: rat-species vanilloid receptor 1 (VR1/TRPV1) (Rattus norvegicus)
- Construct: endogenous in cells; host or cells: primary cells dissociated from rat dorsal root ganglia (DRG), cultured 2-3 days with NGF
- Sequence (O35433 whole entry): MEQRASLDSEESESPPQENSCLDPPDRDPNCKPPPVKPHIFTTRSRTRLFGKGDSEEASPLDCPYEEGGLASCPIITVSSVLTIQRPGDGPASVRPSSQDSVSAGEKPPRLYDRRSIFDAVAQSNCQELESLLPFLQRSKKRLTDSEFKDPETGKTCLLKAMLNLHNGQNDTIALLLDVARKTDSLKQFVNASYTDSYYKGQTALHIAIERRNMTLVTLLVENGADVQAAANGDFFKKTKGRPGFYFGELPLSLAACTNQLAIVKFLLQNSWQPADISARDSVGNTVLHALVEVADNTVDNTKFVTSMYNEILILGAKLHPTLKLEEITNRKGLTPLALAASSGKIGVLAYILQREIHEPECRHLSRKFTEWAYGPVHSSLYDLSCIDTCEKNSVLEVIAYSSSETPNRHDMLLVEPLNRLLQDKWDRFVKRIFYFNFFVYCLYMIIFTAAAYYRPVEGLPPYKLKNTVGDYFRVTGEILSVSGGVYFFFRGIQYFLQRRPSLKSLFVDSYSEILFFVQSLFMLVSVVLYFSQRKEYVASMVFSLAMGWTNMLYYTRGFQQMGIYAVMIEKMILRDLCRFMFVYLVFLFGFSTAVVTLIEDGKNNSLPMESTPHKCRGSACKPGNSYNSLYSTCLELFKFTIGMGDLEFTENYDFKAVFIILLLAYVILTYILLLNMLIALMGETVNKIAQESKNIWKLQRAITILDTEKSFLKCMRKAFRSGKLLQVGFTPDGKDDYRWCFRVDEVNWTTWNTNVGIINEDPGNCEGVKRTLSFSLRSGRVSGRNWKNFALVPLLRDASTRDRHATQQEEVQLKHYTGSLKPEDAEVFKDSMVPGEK
- run.description: Functional testing on the vanilloid receptor 1, FLIPR Ca2+ influx in rat DRG cells, capsaicin
- Assay type: cell-based
- run.parameters: capsaicin (Cap); includes values given in brackets after pAG

compound	study.system	Ki
CC(C(=O)NCc1cc(C(C)(C)C)nn1-c1cccc(Cl)c1)c1ccc2nccnc2c1 (centres unmarked)	rat-species vanilloid receptor 1 (VR1/TRPV1) (Rattus norvegicus)	34.2 nM
CC(C)(C)c1cc(CNC(=O)Cc2ccc3c(c2)OCCO3)n(-c2ccc(Cl)cc2)n1	rat-species vanilloid receptor 1 (VR1/TRPV1) (Rattus norvegicus)	135 nM
CC(C(=O)NCc1cc(C(C)(C)C)nn1-c1cccc(Cl)c1)c1ccc2ocnc2c1 (centres unmarked)	rat-species vanilloid receptor 1 (VR1/TRPV1) (Rattus norvegicus)	8.4 nM
CC(C(=O)NCc1cc(C(C)(C)C)nn1-c1cccc(Cl)c1)c1ccc2c(c1)OCCO2 (centres unmarked)	rat-species vanilloid receptor 1 (VR1/TRPV1) (Rattus norvegicus)	5.5 nM
CC(C(=O)NCc1cc(C(F)(F)F)nn1-c1cccc(Cl)c1)c1cccc2cnccc12 (centres unmarked)	rat-species vanilloid receptor 1 (VR1/TRPV1) (Rattus norvegicus)	1 nM
CC(C(=O)NCc1cc(C(C)(C)C)nn1-c1ccc(F)c(Cl)c1)c1cccc2cnccc12 (centres unmarked)	rat-species vanilloid receptor 1 (VR1/TRPV1) (Rattus norvegicus)	0.9 nM
CC(C(=O)NCc1cc(C(C)(C)C)nn1-c1cccc(Cl)c1)c1cccc2ccc(O)cc12 (centres unmarked)	rat-species vanilloid receptor 1 (VR1/TRPV1) (Rattus norvegicus)	4.2 nM
CC(C(=O)NCc1cc(C(F)(F)F)nn1-c1cccc(Cl)c1)c1ccc2cc(O)ccc2c1 (centres unmarked)	rat-species vanilloid receptor 1 (VR1/TRPV1) (Rattus norvegicus)	2.5 nM
O=C(NCc1cc(C(F)(F)F)nn1-c1cccc(Cl)c1)Nc1ccc2c(c1)OCCO2	rat-species vanilloid receptor 1 (VR1/TRPV1) (Rattus norvegicus)	181 nM
CC(C(=O)NCc1cc(C(C)(C)C)nn1-c1cccc(Cl)c1)c1cccc2cnccc12 (centres unmarked)	rat-species vanilloid receptor 1 (VR1/TRPV1) (Rattus norvegicus)	0.5 nM
CC(C(=O)NCc1cc(C(F)(F)F)nn1-c1cccc(Cl)c1)c1cccc2[nH]ncc12 (centres unmarked)	rat-species vanilloid receptor 1 (VR1/TRPV1) (Rattus norvegicus)	11.2 nM

###

- study.system: hVR1 (Homo sapiens)
- Construct: expressed in transfected cells; host or cells: CHO K1 cells (ECACC), stably transfected
- Sequence (Q8NER1 whole entry): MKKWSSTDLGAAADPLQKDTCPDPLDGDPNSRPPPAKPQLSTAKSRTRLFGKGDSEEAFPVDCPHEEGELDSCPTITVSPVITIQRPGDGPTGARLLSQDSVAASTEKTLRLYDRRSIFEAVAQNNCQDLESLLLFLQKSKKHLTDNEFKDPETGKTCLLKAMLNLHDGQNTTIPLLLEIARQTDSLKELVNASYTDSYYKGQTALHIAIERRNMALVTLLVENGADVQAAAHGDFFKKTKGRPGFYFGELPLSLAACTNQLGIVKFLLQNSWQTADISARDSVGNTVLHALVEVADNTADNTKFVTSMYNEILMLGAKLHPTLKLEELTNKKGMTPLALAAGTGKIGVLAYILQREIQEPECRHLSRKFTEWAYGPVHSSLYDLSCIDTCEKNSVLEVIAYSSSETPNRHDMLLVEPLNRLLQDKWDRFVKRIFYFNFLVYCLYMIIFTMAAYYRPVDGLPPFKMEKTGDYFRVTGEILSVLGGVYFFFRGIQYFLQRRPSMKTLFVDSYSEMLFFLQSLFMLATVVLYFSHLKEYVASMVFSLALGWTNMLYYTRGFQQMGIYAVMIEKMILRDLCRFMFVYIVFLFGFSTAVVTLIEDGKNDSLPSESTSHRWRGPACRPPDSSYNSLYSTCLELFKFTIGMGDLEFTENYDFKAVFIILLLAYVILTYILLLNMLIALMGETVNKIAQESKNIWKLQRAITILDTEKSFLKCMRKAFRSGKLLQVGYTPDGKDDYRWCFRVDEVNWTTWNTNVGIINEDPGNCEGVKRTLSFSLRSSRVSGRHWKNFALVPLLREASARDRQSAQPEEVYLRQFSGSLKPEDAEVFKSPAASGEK
- run.description: Functional test on human VR1, NADA (N-arachidonoyl dopamine) stimulus
- Format: cell-based, human being
- run.parameters: includes values given in brackets after pAG, read-out: Ki (human being) [nM] NADA
Each entry below lists one item and its recorded Ki value.

molecule	unit.string	Ki
CC(C)(C)c1cc(CNC(=O)Nc2ccc3c(c2)CCC3)n(-c2cccc(Cl)c2)n1 [Example 79]	nM	12.6
CC(C(=O)NCc1cc(C(F)(F)F)nn1-c1cccc(Cl)c1)c1cccc2[nH]ncc12 (centres unmarked) [Example 27]	nM	0.008
CC(C(=O)NCc1cc(C(C)(C)C)nn1-c1ccc(F)c(Cl)c1)c1cccc2cnccc12 (centres unmarked) [Example 69]	nM	0.004
CC(C)(C)c1cc(CNC(=O)Nc2cncc3ccccc23)n(-c2cccc(Cl)c2)n1 [Example 112]	nM	6.4
Cc1nc2ccc(C(C)C(=O)NCc3cc(C(F)(F)F)nn3-c3cccc(Cl)c3)cc2s1 (centres unmarked) [Example 45]	nM	11.8
CC(C(=O)NCc1cc(C(F)(F)F)nn1-c1cccc(Cl)c1)c1cccc2cnccc12 (centres unmarked) [Example 64]	nM	0.02
CC(C(=O)NCc1cc(C(F)(F)F)nn1-c1ccc(Cl)cc1)c1cccc2cnccc12 (centres unmarked) [Example 68]	nM	0.04
CC(C(=O)NCc1cc(C(C)(C)C)nn1-c1cccc(Cl)c1)c1cccc2ccc(O)cc12 (centres unmarked) [Example 57]	nM	0.1
